Values compiled from patent US10633377B2.

assay: MTS signal (cell metabolism/viability); assay type: cell-based, Murine; details: mouse, murine macrophages; concentration required to diminish the MTS signal by 50%; read-out: Average TC50
Quick rule for you: CC50 under 20 µM gets MET, anything else gets NOT MET.

Exercise: Threshold test, CC50 < 20 µM: Oc1ccc(Cl)cc1C1(O)CSC(=S)N1Cc1ccccc1 (stereo not shown) [COB-221]
Solution: MET

Exercise: Threshold test, CC50 < 20 µM: OC1(c2ccccc2)CSC(=S)N1Cc1ccc2[nH]ccc2c1 (stereo not shown) [COB-188]
Solution: MET

Exercise: Threshold test, CC50 < 20 µM: Oc1cccc(C2(O)CSC(=S)N2Cc2ccccc2)c1 (stereo not shown) [COB-196]
Solution: MET

Exercise: Threshold test, CC50 < 20 µM: COc1ccc(-c2csc(=S)n2Cc2cccnc2)c(OC)c1 [COB-204]
Solution: NOT MET

Exercise: Threshold test, CC50 < 20 µM: COc1ccc(OC)c(-c2c[nH]c(=S)n2C)c1 [COB-132]
Solution: NOT MET

Exercise: Threshold test, CC50 < 20 µM: CCCCCCN1C(=S)SCC1(O)c1ccccc1 (stereo not shown) [COB-212]
Solution: NOT MET

Exercise: Threshold test, CC50 < 20 µM: Oc1ccc(C2(O)CSC(=S)N2Cc2cccnc2)c(O)c1 (stereo not shown) [COB-200]
Solution: MET

Exercise: Threshold test, CC50 < 20 µM: OC1(c2ccccc2)CSC(=S)N1CCCc1ccccc1 (stereo not shown) [COB-168]
Solution: MET

Exercise: Threshold test, CC50 < 20 µM: COc1ccc(OC)c(C2(O)CSC(=S)N2Cc2ccccc2)c1 (stereo not shown) [COB-143]
Solution: NOT MET

Exercise: Threshold test, CC50 < 20 µM: OC1(c2ccccc2)CSC(=S)N1Cc1ccncc1 (stereo not shown) [COB-187]
Solution: MET

Exercise: Threshold test, CC50 < 20 µM: OC1(c2ccccc2)CSC(=S)N1Cc1nc2ccccc2[nH]1 (stereo not shown) [COB-183]
Solution: NOT MET

Exercise: Threshold test, CC50 < 20 µM: OC1(c2cc(C(F)(F)F)ccc2Cl)CSC(=S)N1Cc1cccnc1 (stereo not shown) [COB-226]
Solution: NOT MET

Exercise: Threshold test, CC50 < 20 µM: CCCn1c(-c2ccc(C#N)cc2)csc1=S [COR-216]
Solution: NOT MET

Exercise: Threshold test, CC50 < 20 µM: CCCn1c(-c2cccnc2)csc1=S [COB-214]
Solution: NOT MET

Exercise: Threshold test, CC50 < 20 µM: COc1ccc(OC)c(-c2csc(=S)n2Cc2cccnc2)c1 [COB-203]
Solution: NOT MET

Exercise: Threshold test, CC50 < 20 µM: CCCn1c(-c2cc(OC)ccc2OC)csc1=S [COB-220]
Solution: NOT MET

Exercise: Threshold test, CC50 < 20 µM: COc1ccc(-c2csc(=S)n2Cc2cccnc2)cc1 [COB-206]
Solution: NOT MET

Exercise: Threshold test, CC50 < 20 µM: COc1ccc(C2(O)CSC(=S)N2Cc2cccnc2)c(OC)c1 (stereo not shown) [COB-199]
Solution: NOT MET

Exercise: Threshold test, CC50 < 20 µM: Cc1ccc(C)c(C2(O)CSC(=S)N2Cc2cccnc2)c1 (stereo not shown) [COB-223]
Solution: MET

Exercise: Threshold test, CC50 < 20 µM: COc1ccc(C2(O)CSC(=S)N2Cc2cccnc2)cc1 (stereo not shown) [COB-201]
Solution: MET

Exercise: Threshold test, CC50 < 20 µM: CCn1c(-c2cccc(Cl)c2)c[nH]c1=O [COB-125]
Solution: NOT MET

Exercise: Threshold test, CC50 < 20 µM: OC1(c2ccccc2)CSC(=S)N1Cc1cccc(CN2C(=S)SCC2(O)c2ccccc2)c1 (stereo not shown) [COB-186]
Solution: MET
